# test_system: HLA-A*3101 (human)
# measurement_notes: competition vs 125I probe, purified HLA
# experimental_conditions: remark: other sources report otherwise
pIC50: −log10 of the molar value.
Listing of entries alongside the reported pIC50.

binder | pIC50
TVINYTLWK [MAGE2.73.V2K9] | 5.05
ALIETSYVK [MAGE2.277] | 6.05
RVRAMAIYR [p53.156.R9] | 8.05
